- System: P. aeruginosa PA14
- MEASUREMENT NOTES: microbe, parasite or virus in culture
- COND: full MHB pH 7.4; 16–20 h at 37 °C; two different duplicate MIC determinations
No end group written: not given here.
Recorded MIC P. aeruginosa PA14, full MHB for the following substances

substance="VDKPPYLPRPRPPRRIYNR [sr8Cterm-Onc] (VDKPPYLPRPRPPRRIYNR-NH2; also: residues 12-19 stereorandomized (1:1 L/D mixture))" result="> 64 µg/mL"
substance="VDKPPYLPRPRPPRRIYNR [sr-Onc] (VDKPPYLPRPRPPRRIYNR-NH2; also: all 19 residues stereorandomized (1:1 L/D mixture))" result="> 64 µg/mL"
substance="VDKPPYLPRPRPPRRIYNR [sr9Cterm-Onc] (VDKPPYLPRPRPPRRIYNR-NH2; also: residues 11-19 stereorandomized (1:1 L/D mixture))" result="> 64 µg/mL"
substance="VDKPPYLPRPRPPRRIYNR-NH2 [L-Onc, reference compound]" result="> 64 µg/mL"
substance="VDKPPYLPRPRPPRRIYNR [sr5Cterm-Onc] (VDKPPYLPRPRPPRRIYNR-NH2; also: residues 15-19 stereorandomized (1:1 L/D mixture))" result="> 64 µg/mL"

Kindly consider the entry below.
May I ask what MIC P. aeruginosa PA14, full MHB has been recorded for VDKPPYLPRPRPPRRIYNR [sr14Nterm-Onc] (VDKPPYLPRPRPPRRIYNR-NH2; also: residues 1-14 stereorandomized (1:1 L/D mixture)) ?
>64/64 μg/mL
